assay: chemical genetic growth profiling, strain panel (AID 1159580);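 also: tested at 20 µM; growth read once vehicle control cultures reached saturation at 30 °C; 1 = growth at the plate median or of vehicle wells; lower values mean less growth of the strain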; conditions: S. cerevisiae deletion strains, growth OD, locus YGL173C, strain kem1, active compounds read low
Among all 5,500 compounds or so, about 2,000 (36%) were called active. Roughly 18% stayed inconclusive and do not appear here. This is one part of the list.
Below, each entry is listed alongside its reported normalized growth.
quantity: normalized growth

[[record]]
compound = "CCN(CC)CCNC(=O)c1cc(S(C)(=O)=O)ccc1OC"
quantity = "normalized growth"
value = 0.965

[[record]]
compound = "CC/C(=C(\\c1ccccc1)c1ccc(OCCN(C)C)cc1)c1ccccc1"
quantity = "normalized growth"
value = 0.168

[[record]]
compound = "C=CC(C)(O)CC/C=C(\\C)CCC=C(C)C (stereo not given)"
quantity = "normalized growth"
value = 0.965

[[record]]
compound = "CC(C)=CCC[C@](C)(O)C1CC=C(C)CC1 (stereo not given in full)"
quantity = "normalized growth"
value = 0.981

[[record]]
compound = "CO[C@H]1/C=C/O[C@@]2(C)Oc3c(C)c(O)c4c(O)c(c5c(nc6cc(C)ccn65)c4c3C2=O)NC(=O)/C(C)=C\\C=C\\[C@H](C)[C@H](O)[C@@H](C)C(O)[C@@H](C)[C@H](OC(C)=O)[C@@H]1C (stereo not given in full)"
quantity = "normalized growth"
value = 1.04


* * *

experiment: chemical genetic growth profiling, strain panel (AID 1159580);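 also: tested at 20 µM; growth read once vehicle control cultures reached saturation at 30 °C; 1 = growth at the plate median or of vehicle wells; lower values mean less growth of the strain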; conditions: S. cerevisiae deletion strains, growth OD, locus YLR085C, strain ARP6, active compounds read low
Screen size: about 5,500 compounds; about 2,000 (36%) were called active. Another 18% or so got no clear call; they are omitted. This is one part of the list.
Listed here: items and their measured normalized growth.
quantity: normalized growth

[[record]]
query_smiles = "NC(=S)N/N=C\\c1ccccc1"
quantity = "normalized growth"
value = 0.301

[[record]]
query_smiles = "CCOC(=O)N/N=C\\c1cccs1"
quantity = "normalized growth"
value = 1.01

[[record]]
query_smiles = "CN(C)C=Nc1nnc(Sc2ncccc2[N+](=O)[O-])s1"
quantity = "normalized growth"
value = 1.06

[[record]]
query_smiles = "NC(=S)N/N=C\\c1cccs1"
quantity = "normalized growth"
value = 0.562

[[record]]
query_smiles = "CN1C2CCC1CC(=NO)C2"
quantity = "normalized growth"
value = 1.02

[[record]]
query_smiles = "COC(=O)c1cc(OC)c(OC)cc1-n1c(C)ccc1C"
quantity = "normalized growth"
value = 1.01

[[record]]
query_smiles = "O=C(COC(=O)c1ccccc1Nc1cccc(F)c1)c1ccccc1"
quantity = "normalized growth"
value = 0.916


* * *

experiment: chemical genetic growth profiling, strain panel (AID 1159580);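 also: tested at 20 µM; growth read once vehicle control cultures reached saturation at 30 °C; 1 = growth at the plate median or of vehicle wells; lower values mean less growth of the strain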; details: S. cerevisiae deletion strains, growth OD, locus YNL322C, strain KRE1 (second series)
About 2,000 (36%) of roughly 5,500 compounds were called active. Not shown: some 18% with an inconclusive outcome. Rule as the data show it: active = normalized growth mostly below about 0.91 (no sharp cut-off); inconclusive = no clear call, values can overlap the other calls; inactive = mostly above about 0.92. Some of the results follow.
Outcomes: active, inactive

[[record]]
molecule = "O=C(O[C@@H]1Cc2c(O)cc(O)cc2O[C@@H]1c1cc(O)c(O)c(O)c1-c1c([C@H]2Oc3cc(O)cc(O)c3C[C@H]2O)cc(O)c(O)c1O)c1cc(O)c(O)c(O)c1"
category = "inactive"

[[record]]
molecule = "CC(=O)c1c(O)c(C)c(O)c2c1OC1=CC(=O)C(C(C)=O)C(=O)C12C (stereo not given)"
category = "active"

[[record]]
molecule = "C=C(C)C1CC=C(CO)CC1 (stereo not given)"
category = "inactive"

[[record]]
molecule = "O=C(O)C1=CCNCC1"
category = "inactive"

[[record]]
molecule = "C=C(C)[C@H]1CC=C(C(=O)O)CC1"
category = "inactive"

